Answer each item with its documented IC50.
target: human D2R/β-arrestin (Homo sapiens (Human)); experiment: cell-based; details: β-arrestin Antagonist, CHO-K1 cell line expressing human D2R/β-arrestin; quinpirole used as agonist
Sequence (P14416 whole entry): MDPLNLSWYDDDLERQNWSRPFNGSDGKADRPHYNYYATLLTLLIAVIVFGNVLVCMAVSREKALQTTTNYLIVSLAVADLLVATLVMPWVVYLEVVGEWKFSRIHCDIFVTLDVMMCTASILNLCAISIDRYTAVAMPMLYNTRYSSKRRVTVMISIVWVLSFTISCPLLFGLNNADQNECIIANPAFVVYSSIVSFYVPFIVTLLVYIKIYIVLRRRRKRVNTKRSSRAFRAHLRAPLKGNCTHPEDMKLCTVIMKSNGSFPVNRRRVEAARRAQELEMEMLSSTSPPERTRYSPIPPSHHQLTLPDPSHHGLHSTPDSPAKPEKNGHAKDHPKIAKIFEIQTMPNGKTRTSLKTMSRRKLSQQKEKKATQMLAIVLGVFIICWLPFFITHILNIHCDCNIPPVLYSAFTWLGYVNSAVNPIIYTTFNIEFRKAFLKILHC

Would you mind telling me what IC50 value was observed for O=C(NC(c1ccc(Cl)cc1)c1ccccn1)C1CCN(CCOc2ccc3cccnc3c2)CC1 (stereo not shown) ?
> 30000 nM

Would you mind telling me what IC50 value was observed for CC(=O)N(CC1CCN(CCOc2ccccc2)CC1)C(c1ccc(Cl)cc1)c1ccccn1 (stereo not shown) ?
100 to 1000 nM

Would you mind telling me what IC50 value was observed for O=C(NC(c1ccc2c(c1)OC(F)(F)O2)c1ccccn1)C1CCN(CCOc2ccccc2)CC1 (stereo not shown) ?
100 to 1000 nM

Would you mind telling me what IC50 value was observed for O=C(NC(c1ccccc1F)c1ccccc1F)C1CCN(CCOc2ccccc2)CC1 ?
1000 to 10000 nM

* * *

target: human D2R/β-arrestin (Homo sapiens (Human)); details: read-out: cAMP Antagonist; CHO-K1 cell line expressing human D2R/β-arrestin; quinpirole used as agonist
EXPERIMENTAL READOUT: IC50

Would you mind telling me what IC50 value was observed for Fc1ccc(C(NCC2CCN(CCOc3ccccc3)CC2)c2ccccn2)cc1 (single isomer, unassigned) [Compound 78b] ?
1000 to 10000 nM

Would you mind telling me what IC50 value was observed for Clc1ccc(C(c2ccccn2)N2CCC3(CCN(CCOc4ccccc4)CC3)C2)cc1 (single isomer, unassigned) [Compound 105b] ?
> 30000 nM

Would you mind telling me what IC50 value was observed for Fc1ccccc1OCCN1CCC(CNC(c2ccc3c(c2)OCO3)c2ccccn2)CC1 (single isomer, unassigned) [Compound 139b] ?
100 to 1000 nM

Would you mind telling me what IC50 value was observed for COc1cccc(C(c2ccccn2)N(C)CC2CCN(CCOc3ccccc3F)CC2)c1 (single isomer, unassigned) [Compound 77b] ?
100 to 1000 nM

Would you mind telling me what IC50 value was observed for c1ccc(OCCN2CCC(CNC(c3ccc4c(c3)OCO4)c3ccccn3)CC2)cc1 (single isomer, unassigned) [Compound 102b] ?
1000 to 10000 nM

Would you mind telling me what IC50 value was observed for CC1(C(=O)NC(c2ccc(F)cc2)c2ccccn2)CCN(CCOc2ccccc2)CC1 (single isomer, unassigned) [Compound 69b] ?
> 30000 nM

Would you mind telling me what IC50 value was observed for CC1(C(=O)NC(c2ccc(Cl)cc2)c2ccccn2)CCN(CCOc2ccccc2)CC1 (single isomer, unassigned) [Compound 144b] ?
> 30000 nM

Would you mind telling me what IC50 value was observed for Fc1ccccc1C(NCC1CCN(CCOc2ccccc2)CC1)c1ccc(Cl)cc1 (single isomer, unassigned) [Compound 81b] ?
100 to 1000 nM

* * *

system: Caco2; assay: Caco2 permeability; format: in vitro ADME; set-up: unit not given beside the values; details: B-A direction
EXPERIMENTAL READOUT: Caco2 B-A
Respond with the number and no other words.

Identify the measured Caco2 B-A of O=C(NC(c1ccc(F)cc1)c1ccccn1)C1CCN(CCOc2ccccc2F)CC1 (centres unmarked) for Caco2.
39.3

Identify the measured Caco2 B-A of O=C(NC(c1ccc(Cl)cc1)c1ccccn1)C1CCN(CCOc2ccccc2)CC1 (centres unmarked) for Caco2.
19.9

Identify the measured Caco2 B-A of O=C(NC(c1ccc(Cl)cc1)c1ccccn1)C1CCN(CCOc2ccc(F)cc2F)CC1 (centres unmarked) for Caco2.
11.5

Identify the measured Caco2 B-A of O=C(NC(c1ccc(Cl)cc1)c1ccccn1)C1CCN(CCOc2ccccc2Cl)CC1 (centres unmarked) for Caco2.
2.4

Identify the measured Caco2 B-A of O=C(NC(c1ccc(F)cc1)c1ccccn1)C1CCN(CCOc2ccccc2Cl)CC1 (centres unmarked) for Caco2.
23.9

* * *

Answer each item with its documented Microsomal Stability: % remaining after 60 minutes.
assay: Microsomal stability, human; format: in vitro ADME
Express your answer in %, writing the number without its unit.

Would you mind telling me what Microsomal Stability: % remaining after 60 minutes value was observed for O=C(NC(c1ccc(F)cc1)c1ccccn1)C1CCN(CCOc2ccccc2F)CC1 (stereo not shown) ?
70

Would you mind telling me what Microsomal Stability: % remaining after 60 minutes value was observed for O=C(NC(c1ccc(F)cc1)c1ccccn1)C1CCN(CCOc2ccccc2C(F)(F)F)CC1 (stereo not shown) ?
46

Would you mind telling me what Microsomal Stability: % remaining after 60 minutes value was observed for O=C(NC(c1ccc(Cl)cc1)c1ccccn1)C1CCN(CCOc2ccc3cccnc3c2)CC1 (stereo not shown) ?
34

Would you mind telling me what Microsomal Stability: % remaining after 60 minutes value was observed for O=C(NC(c1ccc(Cl)cc1)c1ccccc1F)C1CCN(CCOc2ccccc2)CC1 (stereo not shown) ?
45

Would you mind telling me what Microsomal Stability: % remaining after 60 minutes value was observed for O=C(NC(c1ccc(Cl)cc1)c1ccccn1)C1CCN(CCOc2ccc(F)cc2)CC1 (stereo not shown) ?
71

Would you mind telling me what Microsomal Stability: % remaining after 60 minutes value was observed for O=C(NC(c1cccc(C(F)(F)F)c1)c1ccccn1)C1CCN(CCOc2ccccc2)CC1 (stereo not shown) ?
61

Would you mind telling me what Microsomal Stability: % remaining after 60 minutes value was observed for O=C(NC(c1ccc(Cl)cc1)c1ccccn1)C1CCN(CCOc2ccccc2C(F)(F)F)CC1 (stereo not shown) ?
52

Would you mind telling me what Microsomal Stability: % remaining after 60 minutes value was observed for O=C(NC(c1ccc(Cl)cc1)c1cccc(F)c1)C1CCN(CCOc2ccccc2)CC1 (stereo not shown) ?
45

Would you mind telling me what Microsomal Stability: % remaining after 60 minutes value was observed for O=C(NC(c1ccc(Cl)cc1)c1ccccn1)C1CCN(CCOc2cc(F)ccc2F)CC1 (stereo not shown) ?
49

Would you mind telling me what Microsomal Stability: % remaining after 60 minutes value was observed for COc1ccccc1OCCN1CCC(C(=O)NC(c2ccc(Cl)cc2)c2ccccn2)CC1 (stereo not shown) ?
59

* * *

biological target: human D2R/β-arrestin (Homo sapiens (Human)); experiment: Gi/cAMP agonist assay (Lance Ultra cAMP, Forskolin); assay type: cell-based; details: CHO-K1 cell line expressing human D2R/β-arrestin
pEC50: −log10 of the molar value.
EXPERIMENTAL READOUT: pEC50

Identify the measured pEC50 of O=C(NC(c1ccc2c(c1)OCO2)c1ccccn1)C1CCN(CCOc2ccccc2F)CC1 (single isomer, unassigned) [Compound 95a] for human D2R/β-arrestin (Homo sapiens (Human)).
< 4.52

Identify the measured pEC50 of CN(CC1CCN(CCOc2ccc(C(F)(F)F)cc2)CC1)C(c1ccc(Cl)cc1)c1ccccn1 (stereo not drawn) [Compound 137] for human D2R/β-arrestin (Homo sapiens (Human)).
< 4.52

Identify the measured pEC50 of CN(CC1CCN(CCOc2ccccc2)CC1)C(c1ccc(F)cc1)c1ccccn1 (stereo not drawn) [Compound 74] for human D2R/β-arrestin (Homo sapiens (Human)).
> 7.00

Identify the measured pEC50 of Fc1ccc(C(NCC2CCN(CCOc3ccccc3)CC2)c2ccccn2)cc1 (single isomer, unassigned) [Compound 78b] for human D2R/β-arrestin (Homo sapiens (Human)).
< 4.52

Identify the measured pEC50 of Fc1ccccc1OCCN1CCC(CN(CC(F)(F)F)C(c2ccc(Cl)cc2)c2ccccn2)CC1 (stereo not drawn) [Compound 136] for human D2R/β-arrestin (Homo sapiens (Human)).
5.00 to 6.00

Identify the measured pEC50 of O=C(NC(c1ccc(F)cc1)c1ccccn1)C1CCN(CCOc2cc(F)ccc2F)CC1 (stereo not drawn) [Compound 57] for human D2R/β-arrestin (Homo sapiens (Human)).
6.00 to 7.00

Identify the measured pEC50 of CN(C(=O)C1CCN(CCOc2ccccc2)CC1)C(c1ccc(Cl)cc1)c1ccccn1 (stereo not drawn) [Compound 51] for human D2R/β-arrestin (Homo sapiens (Human)).
6.00 to 7.00

Identify the measured pEC50 of CN(CC1CCN(CCOc2ccccc2)CC1)C(c1ccc(F)cc1)c1ccccn1 (single isomer, unassigned) [Compound 74b] for human D2R/β-arrestin (Homo sapiens (Human)).
6.00 to 7.00

Identify the measured pEC50 of O=C(NC(c1ccc(Cl)cc1)c1ccccn1)C1CCN(CCn2ccccc2=O)CC1 (stereo not drawn) [Compound 9] for human D2R/β-arrestin (Homo sapiens (Human)).
< 4.52

Identify the measured pEC50 of CN(CC1CCN(CCOc2ccccc2F)CC1)C(c1ccc2c(c1)OCO2)c1ccccn1 (single isomer, unassigned) [Compound 138b] for human D2R/β-arrestin (Homo sapiens (Human)).
> 7.00

Identify the measured pEC50 of O=C(NC(c1ccc(Cl)cc1)c1ccccn1)C1CCN(CCOc2ccccc2OC(F)(F)F)CC1 (stereo not drawn) [Compound 68] for human D2R/β-arrestin (Homo sapiens (Human)).
< 4.52

Identify the measured pEC50 of CN(CC1CCN(CCOc2ccccc2)CC1)C(c1ccc(Cl)cc1)c1ccccn1 (stereo not drawn) [Compound 79] for human D2R/β-arrestin (Homo sapiens (Human)).
> 7.00

Identify the measured pEC50 of O=C1CCc2ccc(OCCCCN3CCCN(c4cccc(Cl)c4Cl)CC3)nc2N1 [UNC9975, reference compound] for human D2R/β-arrestin (Homo sapiens (Human)).
> 7.00

Identify the measured pEC50 of FC(F)(F)c1ccccc1OCCN1CCC2(CC1)CCN(C(c1ccc(Cl)cc1)c1ccccn1)C2 (stereo not drawn) [Compound 106] for human D2R/β-arrestin (Homo sapiens (Human)).
5.00 to 6.00

Identify the measured pEC50 of COc1cccc(C(NC(=O)C2CCN(CCOc3cc(F)ccc3F)CC2)c2ccccn2)c1 (stereo not drawn) [Compound 90] for human D2R/β-arrestin (Homo sapiens (Human)).
5.00 to 6.00
